- study.target: T1, recombinant human M-CSF (human, UniProt P09603 33-190, limits assumed)
- T1 sequence: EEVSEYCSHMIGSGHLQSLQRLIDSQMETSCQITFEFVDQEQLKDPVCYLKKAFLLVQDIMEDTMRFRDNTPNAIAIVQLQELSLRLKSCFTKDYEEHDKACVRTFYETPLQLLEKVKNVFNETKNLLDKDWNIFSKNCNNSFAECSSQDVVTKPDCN
- test.details: cell-based or functional assay
observable: IC50 Fold Loss

[[record]]
binder = "heRX1-2.G2 (antibody, V domains shown, not shown: human Gamma-2 heavy chain constant region; human Kappa light chain constant region (the printed V regions end in EIKRT, which may overlap its start)) VH: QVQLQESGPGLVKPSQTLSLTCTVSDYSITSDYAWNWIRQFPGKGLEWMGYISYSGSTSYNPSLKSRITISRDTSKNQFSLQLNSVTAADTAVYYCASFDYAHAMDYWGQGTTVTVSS VL: EIVLTQSPGTLSVSPGERVTFSCRASQSIGTSIHWYQQKTGQSPRLLIKYASERISGIPDRFSGSGSGTDFTLTISRVESEDFADYYCQQINSWPTTFGQGTKLEIKR"
observable = "IC50 Fold Loss"
endpoint_result = "3.1 fold"

[[record]]
binder = "heRX1-5.G2 (antibody, V domains shown, not shown: human Gamma-2 heavy chain constant region; human Kappa light chain constant region (the printed V regions end in EIKRT, which may overlap its start)) VH: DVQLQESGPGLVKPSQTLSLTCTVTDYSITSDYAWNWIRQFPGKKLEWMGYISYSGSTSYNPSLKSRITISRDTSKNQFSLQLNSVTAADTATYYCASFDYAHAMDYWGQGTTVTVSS VL: EIVLTQSPGTLSVSPGERVTFSCRASQSIGTSIHWYQQKTGQSPRLLIKYASESISGIPDRFSGSGSGTDFTLTISRVESEDFADYYCQQINSWPTTFGQGTKLEIKR"
observable = "IC50 Fold Loss"
endpoint_result = "6.5 fold"

[[record]]
binder = "heRX1-9.G2 (antibody, V domains shown, not shown: human Gamma-2 heavy chain constant region; human Kappa light chain constant region (the V region entry may overlap its start)) VH: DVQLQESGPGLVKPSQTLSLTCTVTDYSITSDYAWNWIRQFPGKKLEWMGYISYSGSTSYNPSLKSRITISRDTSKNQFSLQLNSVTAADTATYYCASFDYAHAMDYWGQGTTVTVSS VL: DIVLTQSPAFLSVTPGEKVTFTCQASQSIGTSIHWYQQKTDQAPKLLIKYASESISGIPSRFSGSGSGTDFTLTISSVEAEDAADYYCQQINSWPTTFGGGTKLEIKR"
observable = "IC50 Fold Loss"
endpoint_result = "3.6 fold"

[[record]]
binder = "heRX1-4.G2 (antibody, V domains shown, not shown: human Gamma-2 heavy chain constant region; human Kappa light chain constant region (the printed V regions end in EIKRT, which may overlap its start)) VH: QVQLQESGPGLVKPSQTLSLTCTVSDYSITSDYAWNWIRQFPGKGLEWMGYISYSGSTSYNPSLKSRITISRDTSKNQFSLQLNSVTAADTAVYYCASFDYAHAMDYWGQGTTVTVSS VL: EIVLTQSPGTLSVSPGERVTFSCRASQSIGTSIHWYQQKTGQAPRLLIKYASERATGIPDRFSGSGSGTDFTLTISRVESEDFADYYCQQINSWPTTFGQGTKLEIKR"
observable = "IC50 Fold Loss"
endpoint_result = "4.6 fold"

[[record]]
binder = "heRX1-1.G2 (antibody, The legends may have 45 and 48 exchanged; also called heRX1-1-IgG2; heRX1-1.IgG2; not shown: human Gamma-2 heavy chain constant region; human Kappa light chain constant region (the printed V regions end in EIKRT, which may overlap its start)) heavy: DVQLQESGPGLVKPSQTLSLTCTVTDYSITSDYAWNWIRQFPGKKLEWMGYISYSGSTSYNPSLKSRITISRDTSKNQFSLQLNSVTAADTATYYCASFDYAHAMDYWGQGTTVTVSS light: EIVLTQSPGTLSVSPGERVTFSCRASQSIGTSIHWYQQKTGQSPRLLIKYASERISGIPDRFSGSGSGTDFTLTISRVESEDFADYYCQQINSWPTTFGQGTKLEIKRT"
observable = "IC50 Fold Loss"
endpoint_result = "2.8 fold"

